Measured values drawn from PubChem BioAssay AID602143 for this set.

system.tested: Phospholipase D2 (Homo sapiens) (UniProt O14939)
Sequence (O14939 whole entry, looked up): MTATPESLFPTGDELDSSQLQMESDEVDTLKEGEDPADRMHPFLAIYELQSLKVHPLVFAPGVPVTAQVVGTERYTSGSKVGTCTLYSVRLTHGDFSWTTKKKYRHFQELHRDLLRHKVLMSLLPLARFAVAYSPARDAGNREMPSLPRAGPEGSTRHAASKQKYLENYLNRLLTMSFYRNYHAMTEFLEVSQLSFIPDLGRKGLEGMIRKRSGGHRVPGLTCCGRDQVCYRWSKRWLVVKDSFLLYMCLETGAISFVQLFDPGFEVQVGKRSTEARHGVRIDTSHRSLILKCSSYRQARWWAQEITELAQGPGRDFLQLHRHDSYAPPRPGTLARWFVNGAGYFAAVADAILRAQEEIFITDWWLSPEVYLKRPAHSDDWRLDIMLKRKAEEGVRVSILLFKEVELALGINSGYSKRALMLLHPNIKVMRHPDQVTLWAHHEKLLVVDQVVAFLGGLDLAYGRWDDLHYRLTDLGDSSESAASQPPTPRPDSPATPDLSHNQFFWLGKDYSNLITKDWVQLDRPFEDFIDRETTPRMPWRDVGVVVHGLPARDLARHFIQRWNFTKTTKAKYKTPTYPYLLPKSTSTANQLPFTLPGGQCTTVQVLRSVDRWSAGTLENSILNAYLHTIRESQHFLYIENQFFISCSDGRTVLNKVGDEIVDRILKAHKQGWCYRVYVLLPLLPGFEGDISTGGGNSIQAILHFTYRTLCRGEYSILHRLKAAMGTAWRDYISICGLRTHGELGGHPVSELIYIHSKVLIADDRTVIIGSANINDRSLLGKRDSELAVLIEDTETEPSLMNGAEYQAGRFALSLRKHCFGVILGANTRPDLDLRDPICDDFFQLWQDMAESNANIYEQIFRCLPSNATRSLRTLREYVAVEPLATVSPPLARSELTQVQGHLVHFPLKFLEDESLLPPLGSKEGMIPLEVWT
Sequence (O14939 whole entry, looked up): as above
experiment.summary: cellular phospholipase D2 activity inhibition – cell-based, HEK293, single concentration (AID 602143);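 note: tested at 200 nM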
experimental.conditions: HEK293 cellular PLD2 activity, percent of control; hits give low values
parameter: remaining activity (%)
I only need the number, in %, no unit after it.

Name the value of remaining activity reported for `O=C(NCCN1CCC2(CC1)C(=O)NCN2c1cccc(Cl)c1)c1cnc2ccccc2c1` when tested on Phospholipase D2 (Homo sapiens) (UniProt O14939).
45.2

State remaining activity on Phospholipase D2 (Homo sapiens) (UniProt O14939). Entry: `O=C(C#Cc1ccccc1)NCCN1CCC2(CC1)C(=O)NCN2c1ccccc1`
47.9

For Phospholipase D2 (Homo sapiens) (UniProt O14939), give the measured remaining activity of the entry `Cc1ccc(C(=O)NCCN2CCC3(CC2)C(=O)NCN3c2ccccc2)c(O)c1`
85

Please look at `CC(C)[C@@H](CN1CCC2(CC1)C(=O)NCN2c1ccccc1)NC(=O)c1cnc2ccccc2c1` and tell me its recorded remaining activity on Phospholipase D2 (Homo sapiens) (UniProt O14939).
59.3

Fetch value of remaining activity on Phospholipase D2 (Homo sapiens) (UniProt O14939) for `Cc1cccc(C(=O)NCCN2CCC3(CC2)C(=O)NCN3c2ccccc2)n1` .
89

Enter measured remaining activity, system Phospholipase D2 (Homo sapiens) (UniProt O14939), for the compound shown: `O=C(NCCN1CCC2(CC1)C(=O)NCN2c1ccc(Br)cc1)c1cnc2ccccc2c1`
48.6

// fetch remaining activity for `O=C(NCCN1CCC2(CC1)C(=O)NCN2c1ccc(Cl)cc1)c1cnc2ccccc2c1` ; system: Phospholipase D2 (Homo sapiens) (UniProt O14939)
29.7

Please tell me the measured remaining activity for `O=C(NCCN1CCC2(CC1)C(=O)NCN2c1ccccc1)c1cscn1` ; system: Phospholipase D2 (Homo sapiens) (UniProt O14939).
76.2

Lab note: Phospholipase D2 (Homo sapiens) (UniProt O14939) assay, enter remaining activity for `O=C1c2ccccc2C(=O)N1CCCN1CCC2(CC1)C(=O)NCN2c1ccccc1` here
81

Consider the compound `O=C(NCCN1CCC2(CC1)C(=O)NCN2c1ccc(Cl)cc1)c1ccc(Cl)cc1` tested on Phospholipase D2 (Homo sapiens) (UniProt O14939); state its remaining activity.
49

Fill in: remaining activity on Phospholipase D2 (Homo sapiens) (UniProt O14939), entry `O=C(NCCN1CCC2(CC1)C(=O)Oc1ccccc12)c1cnc2ccccc2c1`
57.4

Tell me its remaining activity on Phospholipase D2 (Homo sapiens) (UniProt O14939): `COc1cccc(C(=O)NCCN2CCC3(CC2)C(=O)NCN3c2ccccc2)n1`
60.7

Find the measured remaining activity of `O=C(NCCN1CCC2(CC1)C(=O)NCN2c1cccc(F)c1)C12CC3CC(CC(C3)C1)C2` with Phospholipase D2 (Homo sapiens) (UniProt O14939) as test system.
87.1

Recall the reported remaining activity of `O=C(NCCN1CCC2(CC1)C(=O)NCN2c1ccccc1)c1cc2ccccc2s1` on Phospholipase D2 (Homo sapiens) (UniProt O14939) and write it down.
10.3

# return remaining activity for `O=C(NCCN1CCC2(CC1)C(=O)NCN2c1ccc(Br)cc1)c1ccc2ccccc2c1` , test system: Phospholipase D2 (Homo sapiens) (UniProt O14939)
52

Give remaining activity; test system Phospholipase D2 (Homo sapiens) (UniProt O14939); compound `O=C(CCCl)NCCN1CCC2(CC1)C(=O)NCN2c1cccc(F)c1`
87.1

Specify the recorded remaining activity for `O=C(NCCN1CCC2(CC1)C(=O)NCN2c1ccccc1)c1cccc(F)n1` , system: Phospholipase D2 (Homo sapiens) (UniProt O14939).
63.2

Enter recorded remaining activity with Phospholipase D2 (Homo sapiens) (UniProt O14939) for `O=C(NCCN1CCC2(CC1)C(=O)NCN2c1ccccc1)c1cccnn1` here.
88.2

State, for Phospholipase D2 (Homo sapiens) (UniProt O14939), measured remaining activity of the compound listed here: O=C(C1C[C@H]1c1ccccc1)N1CC(N2CCC(n3c(=O)[nH]c4ccccc43)CC2)C1 (stereo not given in full)
87.7

Give measured remaining activity for `O=C(NCCN1CCC2(CC1)C(=O)NCN2c1ccc(Cl)cc1)c1cc2cc(F)ccc2[nH]1` (Phospholipase D2 (Homo sapiens) (UniProt O14939)).
57
